src = PubChem BioAssay (NCI)

tested on: CAKI-1 renal; assay: NCI tumour cell line growth inhibition, 48 h; in the data active means GI50 below about 0.43 µM; inactive means the rest
Where a SMILES comes first, the peptide text is derived from it. Bridges are numbered along the chain shown (N, C = ends). [ ]: non-standard residue; d: D form. The star is where a group is joined. ξ: configuration not given here. ξDab(CH2SO3H) = NC(CCNCS(=O)(=O)O)C(=O)O; Heptanoyl(6-Me) = CC(C)CCCCC(=O)*; Dab = NCC[CH](N)C(=O)O
The reply should name one outcome from YES for active, NO for inactive

Task: Per the records of this test, what outcome belongs to `COc1ccc(Sc2nc3cc(N)cc(N)c3nc2-c2ccccc2)cc1` ?
Result: NO

Task: Query: recorded result category for `C#CCN(Cc1nc2cc(C(F)(F)F)ccc2nc1-c1ccccc1)c1ccc(C)cc1` in this test
Result: NO

Task: What call does the record list for CCC(C)C1NC(=O)C(CCNCS(=O)(=O)O)NC(=O)C(NC(=O)C(CCNCS(=O)(=O)O)NC(=O)C(NC(=O)C(CCNCS(=O)(=O)O)NC(=O)CCCCC(C)C)C(C)O)CCNC(=O)C(C(C)O)NC(=O)C(CCNCS(=O)(=O)O)NC(=O)C(CCNCS(=O)(=O)O)NC(=O)C(C(C)CC)NC1=O (configuration not stated) ({Heptanoyl(6-Me)}-[ξDab(CH2SO3H)]T[ξDab(CH2SO3H)][Dab][ξDab(CH2SO3H)]II[ξDab(CH2SO3H)][ξDab(CH2SO3H)]T; lactam 4-C; configuration not given here) ?
Result: NO

Task: For `O=C(Nc1ccc(-n2cc(-c3ccncc3)c(-c3ccc(O)c(Cl)c3)n2)cc1)Nc1ccc(Cl)c(C(F)(F)F)c1` , what call appears in the results of this test?
Result: NO

Task: Could you kindly confirm the outcome this assay logged for `CCNC(=O)Nc1ccc(Oc2ccnc3ccc4c(ccn4C)c23)cc1` ?
Result: YES

Task: Test call, this compound: `COCCNc1ccc2c3c(cccc13)C(=O)N(CCN(C)C)C2=O`
Result: NO

Task: Assay outcome for `COc1cc2ncnc(Nc3cccc(Cl)c3F)c2cc1OC(=O)N1CCN(C)C[C@H]1C` : what was it?
Result: NO

Task: # fetch the recorded call for CCN1C(=O)N(CC)C2C1NN=c1s/c(=C\c3ccco3)c(=O)n12 (configuration not stated) here
Result: NO

Task: Status in this test for `CCCCCCn1c(-c2ccc(C(=O)O/N=C(\N)c3ccc4ccccc4c3)cc2)nc(-c2ccccc2)c1-c1ccccc1` ?
Result: NO

Task: Fill in: this test's call for `COc1ccc2c(c1)CC[C@@H]1[C@@H]2CC[C@]2(C)c3c(cc(C(=O)O)c4sccc34)C[C@@H]12` is ___
Result: NO

Task: Tell me the assay call for `CCOC(=O)c1cc(C(=O)c2cc(OC)c(OC)c(OC)c2)n2c1ccc1ccccc12` please.
Result: YES

Task: Recorded call for `Cc1ccc2c(c1)c(Sc1ccc(C(=O)NO)cc1)c1n2CN(C)CC1` ?
Result: NO

Task: For `[Cl][Hg][c]1ccc(Cl)s1` , what call appears in the results of this test?
Result: NO

Task: Assay outcome for `COc1ccc2c(c1)[nH]c(=O)c1c3ccccc3cn21` : what was it?
Result: YES

Task: I'd appreciate the recorded outcome for `N#Cc1c(N2CCOCC2)nc(=S)[nH]c1-c1ccccc1` from this test.
Result: NO

Task: Test call, this compound: `CN(C)CCCCC(C(=O)CBr)(c1ccccc1)c1ccccc1`
Result: NO

Task: What did this assay record as the result for `Clc1ccc(Nc2ccnc(N3CCN(c4ccnc5cc(Cl)ccc45)CC3)n2)cc1` ?
Result: NO

====

tested on: T-47D breast; experiment: NCI tumour cell line growth inhibition, 48 h
Rule: TGI of 10 µM or more gives Met; anything lower gives Not met.

Task: Is TGI for Clc1ccc(C(Cc2cccc(Cl)c2)c2c(Cl)nc(N3CCNCC3)nc2Cl)cc1 (centres undefined) at or above 10 µM?
Result: Met

Task: Answer whether TGI of `COc1ccc(Sc2nc3cc(N)cc(N)c3nc2-c2ccccc2)cc1` is greater than or equal to 10 µM.
Result: Met

Task: Decide: is the reported value of TGI for COC(=O)C1=CO[C@@H](OC2OC(CO)C(O)C(O)C2O)[C@H]2[C@@H](C)[C@@H](O)[C@@H](O)[C@@H]12 (some centres undefined) equal to or greater than 10 µM?
Result: Met

Task: For this compound, is measured TGI 10 µM or higher? `COc1cc2ncnc(Nc3cccc(Cl)c3F)c2cc1OC(=O)N1CCN(C)C[C@H]1C`
Result: Met

Task: Could you verify whether the entry `COc1cc2c(cc1OCCCOS(C)(=O)=O)N=C[C@@H]1CCCN1C2=O` shows TGI of no less than 10 µM?
Result: Met

Task: Is it the case that `Cn1ncc2c(Nc3cccc(Cl)c3)nc(Nc3cccc(Cl)c3)nc21` has TGI reaching or exceeding 10 µM?
Result: Met

Task: Test whether the compound `Cn1nc(C(F)(F)F)cc1-c1c[nH]c(OCc2ccc(Cl)cc2)c(-c2ccc(Cl)c(C(F)(F)F)c2)c1=O` records TGI of 10 µM or higher.
Result: Not met

Task: Check this compound for TGI at or above 10 µM: `C=C1C(=O)O[C@H]2[C@H]1CC/C(C=Nc1c(N)cc(C(F)(F)F)cc1C(F)(F)F)=C\CC[C@@]1(C)O[C@@H]21`
Result: Not met

Task: Does `O=[N+]([O-])c1ccc(C2=Nn3c(nnc3-c3ccc(Cl)cc3)SC2)o1` have a reported TGI of at least 10 µM?
Result: Met

====

Assign TGI to each entry below.
test system: SK-MEL-2 melanoma; experiment: NCI tumour cell line growth inhibition, 48 h

Summary for this molecule, `CO[C@H]1C[C@H](O[C@H]2CC[C@]3(C=O)[C@H]4CC[C@]5(C)[C@@H](C6=CC(=O)OC6)CC[C@]5(O)[C@@H]4CC[C@]3(O)C2)O[C@H](C)[C@H]1O[C@@H]1O[C@H](CO)[C@@H](O)[C@H](O)[C@H]1O` : TGI is 0.000435 µM

Looking up `N#CCCCCCOCCOCCOCCOCCOCCCCCC#N` , I found its TGI recorded as > 100 µM

Looking up `COC(=O)c1ccccc1NC(=NC1CCCCCC1)NS(=O)(=O)c1ccc(C)cc1` , I see its TGI listed as > 100 µM

Record NC(=O)c1ncn(C2OC(CO)C(O)C2O)c1NC=O (centres undefined) , field TGI: > 100 µM

Field TGI (entry O=C(Nc1cccc(C(F)(F)F)c1)C(=O)C1NC(=S)NC1=O (centres undefined) ) reads > 100 µM

TGI recorded for this molecule, O=C(OC1CCC2OOC1O2)c1ccc([N+](=O)[O-])cc1 (centres undefined) , is > 100 µM

Entry `N=C(N)SCc1c2ccccc2c(CSC(=N)N)c2ccccc12` , TGI reported as 41.3 µM

The value of TGI measured for the molecule `CCCCCCn1c(-c2ccc(C(=O)O/N=C(\N)c3ccc4ccccc4c3)cc2)nc(-c2ccccc2)c1-c1ccccc1` turned out to be > 93.2 µM

response.value for `O=C(CCCN1CCC(Nc2ccccc2)(c2nnnn2C2CCCCC2)CC1)c1ccc(F)cc1` (field: TGI) = 23.7 µM

====

So I've got a bunch of compounds here, and I need their TGI values.
tested on: SN12C renal; assay: NCI tumour cell line growth inhibition, 48 h

Quick note, TGI for O=C(NCc1cccnc1)C1COc2cc(-c3cc(=O)c4ccccc4o3)ccc2O1 (centres undefined) landed at > 78 µM

For this compound ( `O=C(OCc1ccc([N+](=O)[O-])cc1)N1c2ccccc2[C@@]23O[C@]24CCC[C@H]3C#C/C=C\C#C[C@H]14` ), measured TGI is > 100 µM

The compound `O=c1[nH]nc(Cc2ccccc2)n1CCCl` showed TGI equal to > 100 µM

compound `O=c1c2ccccc2nc2n1-c1ccccc1SC2` , TGI observed: > 100 µM

Looking up `COC(=O)[C@H](Cc1c[nH]c2ccccc12)NP(=O)(O)OC[C@H]1O[C@@H](n2cc(C)c(=O)[nH]c2=O)C[C@@H]1N=[N+]=[N-]` , I found its TGI recorded as > 100 µM

# TGI (compound: `COC(=O)c1ccccc1N1C(=O)Cc2ccccc2C1=O` ) is > 100 µM

compound `CO[C@H]1C[C@H](O[C@H]2CC[C@]3(C=O)[C@H]4CC[C@]5(C)[C@@H](C6=CC(=O)OC6)CC[C@]5(O)[C@@H]4CC[C@]3(O)C2)O[C@H](C)[C@H]1O[C@@H]1O[C@H](CO)[C@@H](O)[C@H](O)[C@H]1O` , TGI observed: 3.64e-05 µM

GET /value?item= `C[Si](C)(N[Si](C)(C)OCCc1ccccc1)OCCc1ccccc1` &field=TGI returns > 100 µM

The compound `COc1cc2cc(C(=O)Nc3cc4n(n3)-c3ccccc3C4)[nH]c2c(OC)c1OC` showed TGI equal to 25.6 µM

Recorded result, C/C=C1\CC2C(=O)CCC2C2c3ccccc3OC12 (centres undefined) , TGI: 0.821 µM

Reported TGI of `CCOC(=O)Nc1nc2ccc(Br)cc2s1` : > 50 µM

TGI measured on `CC(=O)O[C@@H]1C(=O)N(c2ccccc2)[C@@H]1c1cc2ccccc2c2ccccc12` = > 100 µM

Value of TGI reported for the compound CC(=O)C1Cn2c(=O)c3cc4ccccc4cc3c(=O)n2C=C1C (centres undefined) is > 100 µM

The compound CC(=O)OCC1OC(n2c3c(cc(C#N)c2=S)CCC3)C(OC(C)=O)C(OC(C)=O)C1OC(C)=O (centres undefined) showed TGI equal to > 100 µM
